experimentNotes: cells
Assay type: functional
Calls of active or inactive are those of the source.
recordedEndpoint: IC50

Reference set (3 entries):
moleculeSmiles | recordedEndpoint | result
Cc1ccc(C(=O)N/N=C\c2ccc([N+](=O)[O-])s2)cn1 | IC50 | 4.87 µM (active)
COc1ccc2nc(C)cc(N/N=C/c3ccc(F)cc3)c2c1 | IC50 | 3.12 µM (active)
O=C(Nc1nnc(-c2ccco2)o1)c1ccc(Cl)s1 | IC50 | 1.57 µM (active)

*Q* Record request: IC50 value, item CCOc1ccc(C(=O)CCN2CCCCCC2)cc1
*A* 17.2 µM (active)

###

assayedTarget: Cytochrome P450 2C19 (Homo sapiens, UniProt P33261)
Sequence (P33261 whole entry): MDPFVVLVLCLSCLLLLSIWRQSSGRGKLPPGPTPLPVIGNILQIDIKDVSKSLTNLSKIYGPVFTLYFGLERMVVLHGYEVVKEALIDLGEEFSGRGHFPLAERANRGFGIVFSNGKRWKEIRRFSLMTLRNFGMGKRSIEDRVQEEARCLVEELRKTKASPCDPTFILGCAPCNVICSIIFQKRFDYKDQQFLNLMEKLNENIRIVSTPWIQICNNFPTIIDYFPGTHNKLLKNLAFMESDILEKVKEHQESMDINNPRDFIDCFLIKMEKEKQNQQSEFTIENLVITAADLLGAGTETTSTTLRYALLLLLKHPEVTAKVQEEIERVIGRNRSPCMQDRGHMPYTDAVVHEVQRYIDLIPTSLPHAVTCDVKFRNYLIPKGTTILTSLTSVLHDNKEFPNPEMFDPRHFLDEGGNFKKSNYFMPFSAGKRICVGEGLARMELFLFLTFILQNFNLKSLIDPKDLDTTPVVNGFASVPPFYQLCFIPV
experimentNotes: Cytochrome panel assay with activity outcomes. Panel member name: p450-cyp2c19 Compounds with AC50 equal or less than 10 uM are considered active
Assay type: functional
experimentalParameters: read-out: AC50
For each entry below, report its AC50 value.

Reference set (2 entries):
molecule | result
Cc1nc2ncnn2c(C)c1CCC(=O)NC(C)c1ccc2c(c1)OCCO2 (stereo not drawn) | 8.91 µM (inconclusive)
Cn1cccc1C(=O)N1CCC2(CC1)CN(c1cccc(-c3ccccc3)c1)C2 | 39.8 µM (inconclusive)

Could I get AC50 for every one of these entries?
1. O=C(O)C1CCCCC1C(=O)Nc1ccccc1Cl (stereo not drawn)
2. CCC(C)(NC(=O)c1ccccn1)C(=O)NC1CCCCC1 (stereo not drawn)
3. FC(F)(F)c1ccccc1-c1nccc(NCCN2CCOCC2)n1
4. Cc1ccc(/C=C/C(=O)c2nc3ccccc3[nH]2)cc1
5. CCOCCCN1CC(C(=O)NCCc2ccc(C)cc2)CC1=O (stereo not drawn)
6. CC(NC(=O)c1ccc(Cl)cc1)c1nnc(SCc2ccc([N+](=O)[O-])cc2)n1C (stereo not drawn)

*A*
2.24 µM (inconclusive)
10 µM (inconclusive)
6.31 µM (inconclusive)
0.0158 µM (inconclusive)
25.1 µM (inconclusive)
39.8 µM (inconclusive)

###

assayedTarget: Cytochrome P450 3A4 (Homo sapiens);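 note: confirmatory qHTS run detecting inhibitors and substrates of CYP3A4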
Sequence (P08684 whole entry): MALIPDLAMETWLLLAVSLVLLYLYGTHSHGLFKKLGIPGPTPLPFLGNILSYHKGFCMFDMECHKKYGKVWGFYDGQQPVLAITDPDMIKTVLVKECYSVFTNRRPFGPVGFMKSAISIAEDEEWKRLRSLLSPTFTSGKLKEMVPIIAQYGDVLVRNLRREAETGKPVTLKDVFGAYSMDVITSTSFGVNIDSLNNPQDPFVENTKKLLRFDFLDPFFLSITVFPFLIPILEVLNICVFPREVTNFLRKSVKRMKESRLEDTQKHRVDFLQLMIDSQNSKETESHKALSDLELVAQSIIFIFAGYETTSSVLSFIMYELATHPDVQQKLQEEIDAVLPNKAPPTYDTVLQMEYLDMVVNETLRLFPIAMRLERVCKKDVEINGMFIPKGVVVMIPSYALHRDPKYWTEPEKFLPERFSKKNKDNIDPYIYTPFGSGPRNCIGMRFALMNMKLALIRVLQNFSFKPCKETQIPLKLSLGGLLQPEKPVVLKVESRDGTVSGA
experimentalParameters: Potency
For each entry below, report its AC50 value.

Reference set (6 entries):
molecule | result
Nc1ccc(Cl)cc1N | 7.94 µM (inconclusive)
CCCn1c(C)nc2c(NC3CCN(Cc4ccccc4)C3)nc(C)nc21 (configuration not stated) | 15.8 µM (inconclusive)
CC(=O)OC1CCC23CC1(C)CCC2C(C)(C)CC3OC(C)=O (configuration not stated) [CLOVANEDIOL DIACETATE] | 15.8 µM (inconclusive)
CCCCS(=N)(=O)CCC(N)C(=O)O (configuration not stated) | 20 µM (inconclusive)
CCCCC/C=C\C/C=C\CCCCCCCC(=O)O | 31.6 µM (inconclusive)
O=c1cc(-c2cccc(O)c2O)oc2ccccc12 | 20 µM (inconclusive)

Below: the item to evaluate.
*Q* Record request: AC50 value, item Clc1cccc(C(Cl)(Cl)Cl)n1
*A* 12.6 µM (inconclusive)

###

assayedTarget: Mitogen-activated protein kinase 10 (Homo sapiens, UniProt P53779)
Sequence (P53779 whole entry): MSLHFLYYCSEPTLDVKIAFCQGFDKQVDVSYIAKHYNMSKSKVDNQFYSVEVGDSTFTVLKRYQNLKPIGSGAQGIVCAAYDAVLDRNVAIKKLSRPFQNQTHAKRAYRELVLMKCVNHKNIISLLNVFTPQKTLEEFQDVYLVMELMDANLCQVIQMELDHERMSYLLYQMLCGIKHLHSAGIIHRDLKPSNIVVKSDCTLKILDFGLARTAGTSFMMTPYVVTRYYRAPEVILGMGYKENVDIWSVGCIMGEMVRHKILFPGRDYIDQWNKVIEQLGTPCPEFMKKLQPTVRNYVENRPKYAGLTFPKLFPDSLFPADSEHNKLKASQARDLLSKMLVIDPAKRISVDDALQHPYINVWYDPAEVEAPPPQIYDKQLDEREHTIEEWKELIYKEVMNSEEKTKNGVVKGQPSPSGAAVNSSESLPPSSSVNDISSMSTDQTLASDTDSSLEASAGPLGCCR
experimentNotes: Dose response biochemical screening assay for inhibitors of c-Jun N-Terminal Kinase 3 (JNK3). [Related pubchem assays: 746 ]
Activity calls are given as the source filed them.
For each entry below, report its IC50 value.

Reference set (4 entries):
moleculeSmiles | IC50
COc1cc(CN/C(C)=C(\C#N)C(N)=O)cc(OC)c1OC | 7.16 µM (active)
NC(=O)c1cc(Br)cc2c3c([nH]c12)CCCC3 | 12.5 µM (not active)
COc1ccc(C(C)=O)cc1COC(=O)c1c(C)noc1C | 39.8 µM (not active)
O=C(NC1CCCC1)c1cccnc1N1CCCCCC1 | > 93.1 µM (not active)

Below: the item to evaluate.
*Q* Record request: IC50 value, item Oc1[nH]c2ccccc2c1/C=N/c1ccc2c(c1)OCCO2
*A* 89.9 µM (not active)

FYI, the data here is from ChEMBL document CHEMBL1201862.
